Tested target: T1, human MSLN-R3 on HEK293T-hMSLN-R3 recombinant cells (human, UniProt Q13421 487-606)
T1 construct: the C-terminal limit is uncertain; also called human MSLN-R3 membrane protein
T1 sequence (Q13421 495-614): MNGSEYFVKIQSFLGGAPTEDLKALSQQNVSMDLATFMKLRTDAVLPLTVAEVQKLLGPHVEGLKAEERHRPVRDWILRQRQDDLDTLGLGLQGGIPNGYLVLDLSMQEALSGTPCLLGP
Assay text: FACS, HEK293T-hMSLN-R3 cells
Assay endpoint: pEC50
Please treat pEC50 as minus the base-10 logarithm of the molar concentration.

Binder: F3.80.22-H3 (scFv, not shown: small tags and cut ends, also called S009-F3.80.22 humanized antibody VL1 + VH3) scFv: DIVMTQTPLSLPVTPGEPASISCRSSQSLEHNNGNTYLHWFLQKPGQSPQLLIYKVSNRFSGVPDRFSGSGSGTDFTLKISRVEAEDVGVYYCSQSTHVPFTFGQGTKLEIKGGGGSGGGGSGGGGSEVQLVQSGAEVKKPGATVKISCKASGYTFTDYEIHWVQQAPGKGLEWMGAFDPEIGGSAYNQKFKDRVTITADKSTSTAYMELSSLRSEDTAVYYCTDYYGSSSGYFDVWGTGTTVTVSS
pEC50: 8.36

Query: Any idea what its pEC50 is? The binder is F3.80.22-H7 (scFv, not shown: small tags and cut ends, also called S009-F3.80.22 humanized antibody VL1a + VH3) scFv: DIVMTQTPLSLPVTPGEPASISCRSSQSLEHNDGNTYLHWFLQKPGQSPQLLIYKVSNRFSGVPDRFSGSGSGTDFTLKISRVEAEDVGVYYCSQSTHVPFTFGQGTKLEIKGGGGSGGGGSGGGGSEVQLVQSGAEVKKPGATVKISCKASGYTFTDYEIHWVQQAPGKGLEWMGAFDPEIGGSAYNQKFKDRVTITADKSTSTAYMELSSLRSEDTAVYYCTDYYGSSSGYFDVWGTGTTVTVSS
Result: 8.41
